biological target: T1, PD-1 (UniProt Q15116 25-170, limits assumed); experiment: SPR; set-up and antigen form not restated
T1 construct: also called PD-1 protein
T1 sequence (Q15116 25-170 limits assumed): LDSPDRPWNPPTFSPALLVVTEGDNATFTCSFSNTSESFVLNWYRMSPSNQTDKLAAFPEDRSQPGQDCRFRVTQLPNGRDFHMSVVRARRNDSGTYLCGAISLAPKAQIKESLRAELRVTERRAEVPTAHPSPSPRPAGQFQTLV
For each entry below, report its koff value.

NB194-P29-z10 (Fc fusion, not shown: IgG4 constant region of vector pCDNA3.4-IgG4) heavy: ELQLVESGGGLVQPGGSLRLSCAASGHSFSIYDMGWFRQAADKERESVAVINFGRGTTYYAESVKGRFTISRDNAKNTVYLQMNSLRAEDTAVYSCGIDRRQYGLGIPPLADHWGQGSQVTVSS has a reported koff of 1.74e-05 s⁻¹

NB194-P29-z7 (Fc fusion, not shown: IgG4 constant region of vector pCDNA3.4-IgG4) heavy: QVQLVESGGGLVQPGGSLRLSCSASGHSFSIYDMGWFRQAADKERESVAVINFGRGTTYYAESVKGRFTISLDNAKNTVYLQMNSLRAEDTAVYSCGIDRRQYGLGIPPLADHWGQGSQVTVSS has a reported koff of 2.18e-05 s⁻¹

NB194-P29-z9 (Fc fusion, not shown: IgG4 constant region of vector pCDNA3.4-IgG4) heavy: QVQLVESGGGLVQPGGSLRLSCSASGFTFSIYDMGWFRQAADKERESVAVINFGRGTTYYAESVKGRFTISRDNAKNTVYLQMNSLRAEDTAVYSCGIDRRQYGLGIPPLADHWGQGSQVTVSS has a reported koff of 5.03e-05 s⁻¹
